# System: PBMC (T cell proliferation)
# assay overview: T cell proliferation assay, PHA-stimulated human PBMC (BrdU ELISA)
# Type: cell-based
# assay context: Homo sapiens, 48 h, read-out: IC50 (Tcell proliferation)
Field: IC50. Provide a value for each of the molecules that follow.

The molecule Cc1csc(-c2c(-c3c(F)cccc3Cl)noc2-c2cnn(-c3cccc(Cl)c3)c2C(F)(F)F)n1 , tested on PBMC (T cell proliferation), showed IC50 of < 0.01 µM

The molecule Fc1cccc(Cl)c1-c1noc(-c2cnn(-c3ccccc3Cl)c2C(F)(F)F)c1-c1nccs1 , tested on PBMC (T cell proliferation), showed IC50 of 1 to 10 µM

The molecule CC(=O)Nc1cccc(-n2ncc(-c3onc(-c4c(F)cccc4Cl)c3-c3nnc(C)s3)c2C(F)(F)F)c1 , tested on PBMC (T cell proliferation), showed IC50 of 1 to 10 µM

The molecule Oc1csc(-c2c(-c3c(F)cccc3Cl)noc2-c2cnn(-c3cccc(F)c3)c2C(F)(F)F)n1 , tested on PBMC (T cell proliferation), showed IC50 of 0.1 to 1 µM
